target: EPAC2 (Mus musculus (Mouse), UniProt Q9EQZ6); assay: biochemical; details: Rap1b-bGDP EPAC2 IC50, apparent IC50, EPAC2 GEF activity, 20 μM cAMP
REPORTED_PROPERTY: IC50 (µM)
Express it in µM; write the number only.

Look over these answered cases.
{"SMILES_DATA": "N#CC(=NNc1ccc(Cl)c(C(F)(F)F)c1)C(=O)c1noc2ccccc12", "UNIT_TAG": "µM", "IC50": 1.9}
{"SMILES_DATA": "N#CC(=NNc1cc(Cl)cc(C(F)(F)F)c1)C(=O)c1noc2ccccc12", "UNIT_TAG": "µM", "IC50": 2.2}

Exercise: Look up IC50 for this molecule: CC(C)(C)c1ccc(-c2cc(C(=O)C(C#N)=NNc3ccc(Cl)c(C(F)(F)F)c3)no2)cc1
Solution: 2.2

Exercise: Try the molecule N#CC(=NNc1ccc(Cl)c(C(F)(F)F)c1)C(=O)c1cc(-c2ccco2)on1
Solution: 2.3

Exercise: Same read-out for N#CC(=NNc1cc(C(F)(F)F)cc(C(F)(F)F)c1)C(=O)c1cc(-c2ccccc2)on1 ?
Solution: 3.3

Exercise: What do we get for N#CC(=NNc1cc(Cl)cc(C(F)(F)F)c1)C(=O)c1cc(-c2ccco2)on1 ?
Solution: 2.2

Exercise: Check N#CC(=NNc1ccc(C(F)(F)F)c(Cl)c1)C(=O)c1noc2ccccc12 too.
Solution: 2.2

Exercise: And the next one, COc1ccc(-c2cc(C(=O)C(C#N)=NNc3ccc(Cl)c(C(F)(F)F)c3)no2)cc1 ?
Solution: 4.5
